- assayed_system: human H1 receptor (Homo sapiens)
- Construct: purchased Euroscreen SA, Brussels, Belgium ES-390-M; host or cells: CHO-K1 cells (membranes)
- Sequence (P35367 whole entry): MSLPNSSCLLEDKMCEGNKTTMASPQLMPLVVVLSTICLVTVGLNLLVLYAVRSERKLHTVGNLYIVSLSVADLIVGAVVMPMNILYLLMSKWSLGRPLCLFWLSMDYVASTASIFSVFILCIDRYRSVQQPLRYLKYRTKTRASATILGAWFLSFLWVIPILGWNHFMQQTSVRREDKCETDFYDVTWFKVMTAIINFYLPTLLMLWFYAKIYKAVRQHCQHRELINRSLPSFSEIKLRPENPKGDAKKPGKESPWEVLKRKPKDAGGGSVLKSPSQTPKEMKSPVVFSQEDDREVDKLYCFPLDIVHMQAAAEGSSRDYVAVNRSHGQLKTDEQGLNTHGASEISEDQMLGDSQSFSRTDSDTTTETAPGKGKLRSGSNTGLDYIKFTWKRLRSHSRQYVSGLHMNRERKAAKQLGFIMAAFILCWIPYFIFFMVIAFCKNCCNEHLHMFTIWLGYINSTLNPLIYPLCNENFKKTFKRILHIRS
- experiment_notes: Histamine H1 receptor binding, competition displacement of [3H]-pyrilamine
- condition_notes: displacement of 1 nM [3H]-pyrilamine; membranes from recombinant CHO-K1 cells expressing the human H1 receptor; 1 hour at room temperature; read-out: H1 pKi/[1328_S] (converted)
Where a name gives a salt, the structure may show the parent alone.
Recorded Ki by entry

[
  {
    "molecule": "C[C@@H](Oc1cccc(N2CCC(CN3CCC(Oc4ccc(Cl)c(Cl)c4)CC3)CC2)c1)C(=O)O",
    "assayed_system": "human H1 receptor (Homo sapiens)",
    "Ki [nM]": 12.6
  },
  {
    "molecule": "Cc1c(OC2CCN(CC3CCN(c4ccc(CC(=O)O)cc4)CC3)CC2)ccc(Cl)c1Cl",
    "assayed_system": "human H1 receptor (Homo sapiens)",
    "Ki [nM]": 12.6
  },
  {
    "molecule": "COc1ccc(CC(=O)O)cc1N1CCC(CN2CCC(Oc3ccc(Cl)c(Cl)c3)CC2)CC1",
    "assayed_system": "human H1 receptor (Homo sapiens)",
    "Ki [nM]": 12.6
  },
  {
    "molecule": "C[C@H](Oc1ccccc1N1CCC(CN2CCC(Oc3ccc(Cl)c(Cl)c3)CC2)CC1)C(=O)O",
    "assayed_system": "human H1 receptor (Homo sapiens)",
    "Ki [nM]": 12.6
  },
  {
    "molecule": "CC(C)(Oc1ccccc1N1CCC(CN2CCC(Oc3ccc(Cl)c(Cl)c3)CC2)CC1)C(=O)O",
    "assayed_system": "human H1 receptor (Homo sapiens)",
    "Ki [nM]": 31.6
  },
  {
    "molecule": "C[C@@H](Oc1ccccc1N1CCC(CN2CCC(Oc3ccc(Cl)c(Cl)c3)CC2)CC1)C(=O)O",
    "assayed_system": "human H1 receptor (Homo sapiens)",
    "Ki [nM]": 10
  },
  {
    "molecule": "Cc1c(OC2CCN(CC3CCN(c4cccc(O[C@@H](C)C(=O)O)c4)CC3)CC2)ccc(Cl)c1Cl",
    "assayed_system": "human H1 receptor (Homo sapiens)",
    "Ki [nM]": 20
  },
  {
    "molecule": "O=C(O)COc1c(Cl)cccc1N1CCC(CN2CCC(Oc3ccc(Cl)c(Cl)c3)CC2)CC1",
    "assayed_system": "human H1 receptor (Homo sapiens)",
    "Ki [nM]": 3.16
  },
  {
    "molecule": "Cc1c(OC2CCN(CC3CCN(c4cccc(O[C@H](C)C(=O)O)c4)CC3)CC2)ccc(C#N)c1Cl",
    "assayed_system": "human H1 receptor (Homo sapiens)",
    "Ki [nM]": 398
  },
  {
    "molecule": "O=C(O)COc1ccc(Cl)cc1N1CCC(CN2CCC(Oc3ccc(Cl)c(Cl)c3)CC2)CC1 [Example 39, hydrochloride]",
    "assayed_system": "human H1 receptor (Homo sapiens)",
    "Ki [nM]": 2
  }
]
